All values here come from patent US20110318339A1.

- TEST_SYSTEM: recombinant human DLL4 (Cat# 1506-D4/CF, R&D Systems) (human) (UniProt Q9NR61)
- METHOD: ELISA, DLL4 coated, Fab 25 nM

{"BINDER": "Fab VH5-51_IGHD5-18*01>3_IGHJ4*01 G100K/G104T G24T/S28R/G35V D109Q & V3-4_IGLJ1*01 (Fab, V domains shown) VH: EVQLVQSGAEVKKPGESLKISCKTSGYRFTSYWIVWVRQMPGKGLEWMGIIYPGDSDTRYSPSFQGQVTISADKSISTAYLQWSSLKASDTAMYYCARRKYSYTYDYFQYWGQGTLVTVSS VL: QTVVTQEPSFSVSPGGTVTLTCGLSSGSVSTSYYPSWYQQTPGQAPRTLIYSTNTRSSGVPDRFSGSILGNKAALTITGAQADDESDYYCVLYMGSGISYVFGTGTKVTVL", "ELISA absorbance at 450 nm [A450]": 0.22}
{"BINDER": "Fab VH5-51_IGHD5-18*01>3_IGHJ4*01 G100K & V3-4_IGLJ1*01 (Fab, V domains shown) VH: EVQLVQSGAEVKKPGESLKISCKGSGYSFTSYWIGWVRQMPGKGLEWMGIIYPGDSDTRYSPSFQGQVTISADKSISTAYLQWSSLKASDTAMYYCARRKYSYGYDYFDYWGQGTLVTVSS VL: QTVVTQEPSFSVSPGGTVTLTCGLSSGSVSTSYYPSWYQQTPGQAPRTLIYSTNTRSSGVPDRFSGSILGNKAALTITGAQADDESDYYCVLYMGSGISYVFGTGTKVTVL", "ELISA absorbance at 450 nm [A450]": 0.18}
{"BINDER": "Fab VH5-51_IGHD5-18*01>3_IGHJ4*01 G100K/G104T G24T/S28R/G35V Y107F & V3-4_IGLJ1*01 (Fab, V domains shown) VH: EVQLVQSGAEVKKPGESLKISCKTSGYRFTSYWIVWVRQMPGKGLEWMGIIYPGDSDTRYSPSFQGQVTISADKSISTAYLQWSSLKASDTAMYYCARRKYSYTYDFFDYWGQGTLVTVSS VL: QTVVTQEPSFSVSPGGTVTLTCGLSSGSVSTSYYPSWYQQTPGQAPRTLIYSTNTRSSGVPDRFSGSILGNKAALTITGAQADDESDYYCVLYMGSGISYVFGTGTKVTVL", "ELISA absorbance at 450 nm [A450]": 0.2}
{"BINDER": "Fab VH5-51_IGHD5-18*01>3_IGHJ4*01 G100K/G104T G24T/S28R/G35V Y105H & V3-4_IGLJ1*01 (Fab, V domains shown) VH: EVQLVQSGAEVKKPGESLKISCKTSGYRFTSYWIVWVRQMPGKGLEWMGIIYPGDSDTRYSPSFQGQVTISADKSISTAYLQWSSLKASDTAMYYCARRKYSYTHDYFDYWGQGTLVTVSS VL: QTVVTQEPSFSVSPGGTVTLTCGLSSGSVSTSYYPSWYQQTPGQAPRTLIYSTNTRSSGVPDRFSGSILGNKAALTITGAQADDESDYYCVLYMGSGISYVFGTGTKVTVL", "ELISA absorbance at 450 nm [A450]": 0.19}
